Test: aqueous solubility (LC/MS- or HPLC-based assay)
Format: physicochemical
Settings: aqueous medium, pH 6.5, aqueous buffer, pH 6.5; read-out: Solubility pH 6.5
Source text: Furthermore, to profile the properties of the piperazinyl-4(1H)-quinolones, and to identify potential limitations, aqueous solubility and lipophilicity log D were experimentally determined via LC/MS-based assays as described by the Manetsch laboratory previously^8,10,31,32 (Tables 9-12). […]
recorded_endpoint: solubility

Here are 2 molecules together with their reported answers.
COC(=O)c1c[nH]c2cc(CCN3CCN(Cc4ccc(OC)cc4)CC3)ccc2c1=O ... ≥ 80 µM
COC(=O)c1c[nH]c2cc(CN3CCN(Cc4ccc(OC)cc4)CC3)c(C)cc2c1=O ... ≥ 80 µM

Per the record, COC(=O)c1c[nH]c2cc(N3CCN(c4ccccc4)CC3)c(OC)cc2c1=O has solubility of 1 to 19.9 µM

Per the record, COC(=O)c1c[nH]c2cc(CN3CCN(Cc4ccccc4)CC3)c(C)cc2c1=O has solubility of ≥ 80 µM

Per the record, COC(=O)c1c[nH]c2cc(CN3CCN(Cc4ccccc4)CC3)ccc2c1=O has solubility of ≥ 80 µM

Per the record, COC(=O)c1c[nH]c2cc(CN3CCN(Cc4ccc5c(c4)OCO5)CC3)ccc2c1=O has solubility of ≥ 80 µM

The values you see were collected from patent US10000452B1.
